inhibition at 1 µM values by entry
test system: Tau/aggregate; experiment: Tau/aggregate inhibition in HEK 293 cells expressing mKate2-tagged Tau; format: cell-based, Human; details: Homo sapiens, HEK293

Compound	inhibition at 1 µM
O=c1[nH]cnc2ccc(F)cc12 [WHYKD24]	30%
Fc1ccc2ncnc(SC3CCCC3)c2c1 [WHYKD15]	65%
Oc1ccc(CCNc2ncnc3ccc(Cl)cc23)cc1 [WHYKD8]	30%
Fc1ccc2ncnc(SC3CCOCC3)c2c1 [WHYKD19]	55%
Cn1nnnc1Sc1ncnc2ccc(F)cc12 [WHYKD5]	35%
Fc1ccc2ncnc(SC3CCCCC3)c2c1 [WHYKD12]	60%

----------
System: Autophagy Markers
Assay: Autophagy markers (Cyto-ID assay) in HEK 293 cells
Assay type: cell-based, Human
Method: The dye used in the kit prevents its accumulation within lysosomes, but enables labelling of vacuoles associated with the autophagy pathway using the LC3 biomarker. The test compounds (along with CytoID™ dye and Hoechst stain) were added to the cells and incubated for 3 hours. […] Cells were then washed and read using a fluorescence plate reader. Hoescht, Cyto-ID™ and mKate2 were measured using 3 distinct wavelengths on the plate reader. […]
Quantity Name: % Increase Autophagy Markers (%)

Oc1ccc(CCNc2ncnc3ccc(Cl)cc23)cc1 25
Fc1ccc2ncnc(SC3CCCCC3)c2c1 40
Fc1ccc2ncnc(SC3CCCC3)c2c1 40
Cn1nnnc1Sc1ncnc2ccc(F)cc12 20
Fc1ccc2ncnc(SC3CCOCC3)c2c1 35
O=c1[nH]cnc2ccc(F)cc12 15

----------
test: Cytotoxicity LC50 (XTT assay for cell viability); format: cell-based; settings: human, transfected HEK 293 cells that express mKate2-tagged Tau; XTT assay; 200 = upper concentration limit tested; read-out: LC50 (the source's name);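 note: cells carry doxycycline-repressible Tau, induced by withdrawing doxycycline for 72 h before compound exposure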

Molecule	CC50
Ic1ccc2ncnc(SC3CCCC3)c2c1 [WHYKD30]	> 200 µM
c1cnc2c(SC3CCCC3)ncnc2c1 [WHYKD36]	67 µM

----------
tested on: Autophagy Markers; assay: Autophagy markers (Cyto-ID assay) in HEK 293 cells; format: cell-based, Human; settings: @ 2 μM

Molecule	% Increase Autophagy Markers
Oc1ccc(CCNc2ncnc3scnc23)cc1 [WHYKD2]	No Effect @ 2 μM
Cn1nnnc1Sc1ccnc2ccccc12 [WHYKD10]	No Effect @ 2 μM
COC(=O)CC12CC3CC(C1)CC(Sc1ncnc4ccc(F)cc14)(C3)C2 [WHYKD18]	No Effect @ 2 μM
Fc1ccc2ncnc(SC34CC5CC(CC(C5)C3)C4)c2c1 [WHYKD14]	No Effect @ 2 μM
Fc1ccc2ncnc(Cl)c2c1 [WHYKD9]	No Effect @ 2 μM
Oc1ccc(CCNc2ncnc3ccsc23)cc1 [WHYKD23]	No Effect @ 2 μM
Fc1ccc2ncnc(SC3Cc4ccccc4C3)c2c1 [WHYKD20]	No Effect @ 2 μM
Oc1ccc(CCNc2ncnc3sccc23)cc1 [WHYKD22]	No Effect @ 2 μM
Oc1ccc(CCNc2ncnc3ncsc23)cc1 [WHYKD21]	No Effect @ 2 μM
Cn1nnnc1Sc1ccnc2ccc(F)cc12 [WHYKD11]	No Effect @ 2 μM
Cn1nnnc1Sc1ncnc2scnc12 [WHYKD1]	No Effect @ 2 μM
Fc1ccc2ncnc(SC3CC4CCC3C4)c2c1 (stereo not drawn) [WHYKD16]	No Effect @ 2 μM

----------
target: PLD2 (Homo sapiens, UniProt O14939); construct: endogenous in cells; host or cells: HEK 293 (Jump-In) cells with tet-regulated mKate2-Tau; experiment: PLD2 activity: Proteostat/mKate2 with PLD1 inhibitor VU0150669; assay type: cell-based; details: with PLD1 inhibitor VU0150669, 50 nM; read-out: Proteostat (nM) using pharmacological inhibitor PLD2
Sequence (O14939 whole entry): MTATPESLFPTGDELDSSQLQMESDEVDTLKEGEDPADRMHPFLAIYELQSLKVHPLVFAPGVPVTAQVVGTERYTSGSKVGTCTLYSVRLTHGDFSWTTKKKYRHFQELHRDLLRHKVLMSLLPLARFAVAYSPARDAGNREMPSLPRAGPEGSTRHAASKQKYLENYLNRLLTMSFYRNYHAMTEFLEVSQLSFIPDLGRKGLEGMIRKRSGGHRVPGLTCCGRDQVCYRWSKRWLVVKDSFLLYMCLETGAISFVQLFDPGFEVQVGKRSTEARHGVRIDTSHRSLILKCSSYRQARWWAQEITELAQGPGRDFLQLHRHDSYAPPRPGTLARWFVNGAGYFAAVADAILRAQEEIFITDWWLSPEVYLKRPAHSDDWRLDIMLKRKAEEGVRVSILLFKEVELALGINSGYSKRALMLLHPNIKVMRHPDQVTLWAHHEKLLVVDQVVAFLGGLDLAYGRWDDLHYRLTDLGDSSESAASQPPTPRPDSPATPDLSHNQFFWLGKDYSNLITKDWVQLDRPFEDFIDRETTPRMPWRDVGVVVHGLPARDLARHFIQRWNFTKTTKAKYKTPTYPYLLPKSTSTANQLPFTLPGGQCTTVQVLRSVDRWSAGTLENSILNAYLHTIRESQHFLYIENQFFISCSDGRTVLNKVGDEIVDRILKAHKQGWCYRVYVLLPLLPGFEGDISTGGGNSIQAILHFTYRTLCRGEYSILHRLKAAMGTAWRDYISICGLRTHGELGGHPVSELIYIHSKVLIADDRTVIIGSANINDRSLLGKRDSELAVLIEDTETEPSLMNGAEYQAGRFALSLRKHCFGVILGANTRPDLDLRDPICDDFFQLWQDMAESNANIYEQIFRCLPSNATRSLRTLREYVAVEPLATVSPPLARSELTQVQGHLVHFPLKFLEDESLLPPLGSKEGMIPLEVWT
Quantity Name: EC50 (nM)

c1cnc2c(SC3CCCC3)ncnc2c1 604

Recorded values, source patent US10487091B2.
